In this section we review reported pIC50 values for a set of molecules.
Molecular target: human 20S proteasome trypsin-like (T-L, β2) site (Homo sapiens, UniProt P49720+Q99436)
Experiment: Fluorogenic assay for 20S human proteasome inhibition, trypsin-like site
pIC50: −log10 of the molar value.

Please review the following examples before continuing.
CCCCCC[C@@]1(C)C(=O)O[C@H]1C(=O)NCCCC[C@H](NC(=O)[C@H](C)NC(=O)OCc1ccccc1)C(=O)OCc1ccccc1
< 4.00
CCCCCC[C@H]1C(=O)O[C@@H]1C(=O)NCCCC[C@H](NC(=O)OCc1ccccc1)C(=O)N[C@@H](C)C(=O)OCc1ccccc1
< 4.00
CCCCCC[C@@H]1C(=O)O[C@H]1C(=O)NCCCC[C@H](NC(=O)[C@H](C)NC(=O)OCc1ccccc1)C(=O)OCc1ccccc1
< 4.00
CCCCCCCCCCC[C@@H](C[C@@H]1OC(=O)[C@H]1CCCCCC)OC(=O)[C@H](CC(C)C)NC=O [orlistat, Tetrahydrolipstatin, reference compound]
< 4.00

Challenge: What value of pIC50 has been reported for the following molecule? `C#Cc1ccc(COC(=O)[C@H](C)NC(=O)[C@H](CCCCNC(=O)[C@@H]2OC(=O)[C@H]2CCCCCC)NC(=O)OCc2ccccc2)cc1`
Response given: < 4.00

Challenge: I'd like to know its pIC50. The molecule in question is `CCCCCC[C@]1(C)C(=O)O[C@H]1C(=O)NCCCC[C@H](NC(=O)[C@H](C)NC(=O)OCc1ccccc1)C(=O)OCc1ccccc1`
Response given: < 4.00

Challenge: Could you share which pIC50 value was measured for `CCCCCC[C@@H]1C(=O)O[C@H]1C(=O)NCCCC[C@@H]1NC(=O)N([C@@H](C)C(=O)OCc2ccccc2)C1=O` ?
Response given: < 4.00

Challenge: I'd like to know its pIC50. The molecule in question is `CCCCCC[C@@H]1C(=O)O[C@H]1C(=O)NCCCC[C@H](NC(=O)OCc1ccccc1)C(=O)N[C@@H](C)C(=O)OCc1ccccc1`
Response given: < 4.00

Challenge: Could you share which pIC50 value was measured for `CCCCCC[C@H]1C(=O)O[C@@H]1C(=O)NCCCC[C@H](NC(=O)CNC(=O)OCc1ccccc1)C(=O)OCc1ccccc1` ?
Response given: < 4.00

Challenge: Return reported pIC50; argument: `CCCCCC[C@@]1(C)C(=O)O[C@@H]1C(=O)NCCCC[C@H](NC(=O)[C@H](C)NC(=O)OCc1ccccc1)C(=O)OCc1ccccc1`
Response given: < 4.00

Challenge: Which pIC50 is listed for `CCCCCC[C@@H]1C(=O)O[C@H]1C(=O)NCCCC[C@H](NC(=O)[C@H](C)NC(=O)c1ccc(Br)cc1)C(=O)OCc1ccccc1` ?
Response given: < 4.00

Challenge: Entry `CCCCCC[C@@H]1C(=O)O[C@H]1C(=O)NCCCC[C@H](NC(=O)CNC(=O)OCc1ccccc1)C(=O)OCc1ccccc1` : reported pIC50 = ?
Response given: < 4.00

---

// reported pIC50 per item
Target: human 20S proteasome caspase-like (C-L, β1) site (Homo sapiens, UniProt P28072+Q99436)
Test: Fluorogenic assay for 20S human proteasome inhibition, caspase-like site
pIC50: −log10 of the molar value.

CCCCCC[C@H]1C(=O)O[C@@H]1C(=O)NCCCC[C@H](NC(=O)OCc1ccccc1)C(=O)N[C@@H](C)C(=O)OCc1ccccc1 [compound 23]
< 4.00

Challenge: Value lookup for pIC50; key = CCCCCCCCCCC[C@@H](C[C@@H]1OC(=O)[C@H]1CCCCCC)OC(=O)[C@H](CC(C)C)NC=O [orlistat, Tetrahydrolipstatin, reference compound]
Response given: < 4.00

Challenge: Query: pIC50; subject: C#Cc1ccc(COC(=O)[C@H](C)NC(=O)[C@H](CCCCNC(=O)[C@@H]2OC(=O)[C@H]2CCCCCC)NC(=O)OCc2ccccc2)cc1 [compound 28]
Response given: < 4.00

Challenge: Return reported pIC50; argument: CCCCCC[C@@H]1C(=O)O[C@H]1C(=O)NCCCC[C@@H]1NC(=O)N([C@@H](C)C(=O)OCc2ccccc2)C1=O [compound 22]
Response given: 5.10

Challenge: Query (compound): CCCCCC[C@@H]1C(=O)O[C@H]1C(=O)NCCCC[C@H](NC(=O)OCc1ccccc1)C(=O)N[C@@H](C)C(=O)OCc1ccccc1 [compound 21] ; field requested: pIC50
Response given: < 4.00
